Origin of the recorded values: PubChem BioAssay AID1963827

Test system: 994946-033-R-J1-PDC complex spheroid viability;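 further: spheroids exposed to drugs for 7 days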
Experiment: Anticancer human tumor 994946-033-R-J1-PDC patient-derived melanoma cell line growth inhibition [POLQ]
Conditions: curve of first compound; second compound 10 µM
attributeMeasured: IC50 (µM)
The response must be a number in µM with no trailing unit.

CC[C@@]1(O)C(=O)OCc2c1cc1n(c2=O)Cc2cc3c(CN(C)C)c(O)ccc3nc2-1 + Cc1cccc(N(C)C(=O)C2C(O)CCN2c2nc(C)cc(C(F)(F)F)c2C#N)c1	0.0211
CC1COCCN1c1cc(C2(O)CC3CCC(C2)O3)c2cnn(-c3ccn[nH]3)c2n1 (stereo unspecified) + COC1C(OC(N)=O)C(O)C(Oc2ccc3c(O)c(NC(=O)c4ccc(O)c(CC=C(C)C)c4)c(=O)oc3c2C)OC1(C)C	0.0445
CCCS(=O)(=O)Nc1ccc(F)c(C(=O)c2c[nH]c3ncc(-c4ccc(Cl)cc4)cc23)c1F + Nc1ccc(C#CCN(C(=O)Cc2ncc(C(F)(F)F)cc2C(F)(F)F)c2ccc(F)cc2)nn1	6.3
COc1ccc([C@@H](O)c2cc(-c3ncnc4cc(N5CCOCC5)ccc34)c(F)cc2Cl)nn1 + Cc1cccc(N(C)C(=O)C2C(O)CCN2c2nc(C)cc(C(F)(F)F)c2C#N)c1	6.2
COc1ccc([C@@H](O)c2cc(-c3ncnc4cc(N5CCOCC5)ccc34)c(F)cc2Cl)nn1 + COC1C(OC(N)=O)C(O)C(Oc2ccc3c(O)c(NC(=O)c4ccc(O)c(CC=C(C)C)c4)c(=O)oc3c2C)OC1(C)C	9.07
CC1COCCN1c1cc(-c2ccnn2C)c2ccnc(-c3ccn[nH]3)c2n1 (stereo unspecified) + Nc1ccc(C#CCN(C(=O)Cc2ncc(C(F)(F)F)cc2C(F)(F)F)c2ccc(F)cc2)nn1	0.0806
O=C(c1cc(Cc2n[nH]c(=O)c3ccccc23)ccc1F)N1CCN(C(=O)C2CC2)CC1 + Nc1ccc(C#CCN(C(=O)Cc2ncc(C(F)(F)F)cc2C(F)(F)F)c2ccc(F)cc2)nn1	7
CC[C@@]1(O)C(=O)OCc2c1cc1n(c2=O)Cc2cc3c(CN(C)C)c(O)ccc3nc2-1 + Nc1ccc(C#CCN(C(=O)Cc2ncc(C(F)(F)F)cc2C(F)(F)F)c2ccc(F)cc2)nn1	0.0303

Could you now look at the following compound, please?
The reported IC50 of the compound CC(C)n1c(=O)n(C)c2cnc3cc(F)c(-c4ccc(OCCCN5CCCCC5)nc4)cc3c21 + COC1C(OC(N)=O)C(O)C(Oc2ccc3c(O)c(NC(=O)c4ccc(O)c(CC=C(C)C)c4)c(=O)oc3c2C)OC1(C)C was 6.35
